- Tested On: T1, DFNB31_3, Q9P202
- T1 sequence (Q9P202 811-907, limits assumed, looked up): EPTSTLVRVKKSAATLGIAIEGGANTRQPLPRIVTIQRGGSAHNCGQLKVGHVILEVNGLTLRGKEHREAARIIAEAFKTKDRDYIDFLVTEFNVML
- Procedure Summary: holdup assay
- Set-up: key: below the threshold = too weak to quantify, mostly under pKd 3.1 to 4
- Setup Conditions: plain residues with an end cap or a label only (N-terminal biotin on a linker: ado-ado)
Readout Kind: pKd

> print(dat)
                              binder  readout.kind         result.value
1        QSYPSKHDYV [CLDN18, P56856]           pKd  below the threshold
2  KSRVAFFEEL [NF2, P35240;P35240-1]           pKd  below the threshold
3         EIPAQSPTCV [FZD10, Q9ULW2]           pKd  below the threshold
4        NTANRRTTPV [CACNG2, Q9Y698]           pKd  below the threshold
